Tested on: MDA-MB-435
Assay: NCI tumour cell line growth inhibition, 48 h
observation_type: TGI

Recorded TGI, per entry:
C[n+]1c2ccccc2c(Nc2ccc(NS(=O)(=O)CCCCN=C(N)N)cc2)c2ccc(N)cc21
> 100 µM
CNC(=O)c1ccccc1[S+]1c2cccc3cccc(c23)C(=O)N1C (stereo unspecified)
> 100 µM
CCOC(=O)C1=NN(c2ccc(Cl)cc2)C2=CC(C)=NN(C)C(=S)N21
> 100 µM
COc1ccc(/C=N\NC(=O)Nc2cccc3ccccc23)cc1
> 100 µM
COc1ccc(NCc2cnc3nc(N)nc(N)c3c2C)cc1
> 100 µM

[Q] Please report the measured TGI for `COC(=O)c1c(O)ccc2c1c1c(n2Cc2ccccn2)C(=O)c2ccccc2C1=O`
[A] > 100 µM

[Q] Please report the measured TGI for `Cc1nc2c(Cl)cc(Cl)cc2c(Cl)c1CCCl`
[A] > 100 µM

[Q] Please report the measured TGI for `COc1ccc(CCNC(=O)CCCCCO)cc1OC`
[A] > 100 µM
